- Organism: Rattus norvegicus
- Experiment summary: DrugMatrix - Regimen: Daily Repeat
- Format: toxicity, organism-based, Sprague-Dawley
- Set-up: regimen Daily Repeat, gender Male, age 6-8 weeks
- Stated conditions: in vivo, ip, 0 mg/kg, 120 h, tissue Blood, route intraperitoneal, dose level Control, time 5 day, vehicle 100 % SALINE

{"Seq string": "GENTAMICIN", "Measurement unit": "cells/µL", "ABSOLUTE LYMPHOCYTE": 6630}

----------
- Species: Rattus norvegicus
- Experiment summary: DrugMatrix - Regimen: Daily Repeat
- Format: toxicity, organism-based, Sprague-Dawley
- Set-up: regimen Daily Repeat, gender Male, age 6-8 weeks
- Stated conditions: in vivo, ip, 0 mg/kg, […], tissue Blood, route intraperitoneal, dose level Control, time 14 day, vehicle 100 % SALINE

{"Seq string": "GENTAMICIN", "ABSOLUTE EOSINOPHIL (cells/µL)": 140}

----------
- Species on record: Rattus norvegicus
- Experiment summary: DrugMatrix - Regimen: Daily Repeat
- Format: toxicity, organism-based, Sprague-Dawley
- Set-up: regimen Daily Repeat, gender Male, age 6-8 weeks
- Stated conditions: in vivo, po, 2000 mg/kg, 120 h, tissue Plasma, route oral GAVAGE, dose level High, time 5 day, vehicle .5 % CMC
Value type: PHOSPHORUS (mg/dL)

{"Compound": "O=C1Nc2ccc(Cl)cc2C(c2ccccc2Cl)=NC1O (stereo unspecified) [LORAZEPAM]", "Test value": 8.55}
{"Compound": "NC1CCN(c2nc3c(cc2F)c(=O)c(C(=O)O)cn3-c2ccc(F)cc2F)C1 (stereo unspecified) [TOSUFLOXACIN]", "Test value": 9.47}
{"Compound": "CN/C(=N/CCSCc1nc[nH]c1C)NC#N [CIMETIDINE]", "Test value": 13.4}
{"Compound": "CN(C/C=C/C#CC(C)(C)C)Cc1cccc2ccccc12 [TERBINAFINE]", "Test value": 10.63}
{"Compound": "CC1(C)S[C@@H]2[C@H](NC(=O)[C@H](N)c3ccccc3)C(=O)N2[C@H]1C(=O)O [AMPICILLIN]", "Test value": 11.63}
{"Compound": "COc1cc2nc(N3CCN(C(=O)c4ccco4)CC3)nc(N)c2cc1OC [PRAZOSIN]", "Test value": 10.4}

----------
Below: a set of entries, each annotated with reported TOTAL BILIRUBIN.
- Organism: Rattus norvegicus
- Experiment summary: DrugMatrix - Regimen: Daily Repeat
- Type: toxicity, organism-based, Sprague-Dawley
- Parameters: regimen Daily Repeat, gender Male, age 6-8 weeks
- Stated conditions: in vivo, po, 0 mg/kg, 120 h, tissue Plasma, route oral GAVAGE, dose level Control, time 5 day, vehicle .5 % CMC

{"Compound": "CNCCC(Oc1ccc(C(F)(F)F)cc1)c1ccccc1 (stereo not given) [FLUOXETINE]", "TOTAL BILIRUBIN [mg/dL]": 0.55}
{"Compound": "CC(C(=O)O)c1ccc2oc(-c3ccc(Cl)cc3)nc2c1 (stereo not given) [BENOXAPROFEN]", "TOTAL BILIRUBIN [mg/dL]": 0.65}
{"Compound": "Clc1ccccc1CN1CCc2sccc2C1 [TICLOPIDINE]", "TOTAL BILIRUBIN [mg/dL]": 0.68}
{"Compound": "C[C@H]1O[C@@H](n2cc(F)c(=O)[nH]c2=O)[C@H](O)[C@@H]1O [DOXIFLURIDINE]", "TOTAL BILIRUBIN [mg/dL]": 0.2}
{"Compound": "COc1ccc(C2C(=O)c3ccccc3C2=O)cc1 [ANISINDIONE]", "TOTAL BILIRUBIN [mg/dL]": 0.68}

----------
- Species: Rattus norvegicus
- Experiment summary: DrugMatrix - Regimen: Daily Repeat
- Assay type: toxicity, organism-based, Sprague-Dawley
- Parameters: regimen Daily Repeat, gender Male, age 6-8 weeks
- Stated conditions: in vivo, ip, 0 mg/kg, […], tissue Blood, route intraperitoneal, dose level Control, time 28 day, vehicle 100 % SALINE
Value type: ABSOLUTE MONOCYTE (cells/µL)

{"Seq string": "GENTAMICIN", "Test value": 210}

----------
Below: a set of entries, each annotated with reported CHOLESTEROL.
- Organism: Rattus norvegicus
- Experiment summary: DrugMatrix - Regimen: Daily Repeat
- Type: toxicity, organism-based, Sprague-Dawley
- Set-up: regimen Daily Repeat, gender Male, age 6-8 weeks
- Stated conditions: in vivo, po, 10 mg/kg, 72 h, tissue Plasma, route oral GAVAGE, dose level Low, time 3 day, vehicle .5 % CMC
Value type: CHOLESTEROL (mg/dL)

{"Compound": "Fc1ccc(C(c2ccc(F)cc2)N2CCN(C/C=C/c3ccccc3)CC2)cc1", "Test value": 87.67}
{"Compound": "CNCCC(Oc1ccc(C(F)(F)F)cc1)c1ccccc1 (centres undefined)", "Test value": 78}
{"Compound": "O=C1C(CC[S+]([O-])c2ccccc2)C(=O)N(c2ccccc2)N1c1ccccc1 (centres undefined)", "Test value": 80.33}
{"Compound": "O=C1CN=C(c2ccccc2Cl)c2cc([N+](=O)[O-])ccc2N1", "Test value": 69.33}

----------
- Species on record: Rattus norvegicus
- Experiment summary: DrugMatrix - Regimen: Daily Repeat
- Type: toxicity, organism-based, Sprague-Dawley
- Parameters: regimen Daily Repeat, gender Male, age 6-8 weeks
- Stated conditions: in vivo, po, 0 mg/kg, 120 h, tissue Plasma, route oral GAVAGE, dose level Control, time 5 day, vehicle 100 % WATER
Would you mind labelling by CREATININE? At or over 0.2 mg/dL is Satisfied, under is Not satisfied.

{"Compound": "CN(C)CC[C@@H](c1ccc(Cl)cc1)c1ccccn1", "Class label": "Not satisfied"}
{"Compound": "Oc1cccc(O)c1O", "Class label": "Satisfied"}
{"Compound": "Cc1ccc(NC(=O)c2ccc(CN3CCN(C)CC3)cc2)cc1Nc1nccc(-c2cccnc2)n1", "Class label": "Satisfied"}
{"Compound": "CN(C)CCOC(c1ccccc1)c1ccccc1 [DIPHENHYDRAMINE]", "Class label": "Not satisfied"}
{"Compound": "CS(=O)(=O)c1ccc([C@@H](O)[C@@H](CO)NC(=O)C(Cl)Cl)cc1", "Class label": "Satisfied"}
{"Compound": "CN1[C@@H]2CC[C@H]1C[C@@H](OC(=O)C(CO)c1ccccc1)C2 (stereo partly drawn)", "Class label": "Not satisfied"}
{"Compound": "CC(C)(C)CC(C)(C)c1ccc(OCCOCC[N+](C)(C)Cc2ccccc2)cc1.[Cl-] [BENZETHONIUM CHLORIDE]", "Class label": "Not satisfied"}
{"Compound": "O.O.O.O.O.O.[Cl-].[Cl-].[Sr+2] [STRONTIUM CHLORIDE HEXAHYDRATE]", "Class label": "Satisfied"}

----------
Below: a set of entries, each annotated with reported LACTATE DEHYDROGENASE.
- Species: Rattus norvegicus
- Experiment summary: DrugMatrix - Regimen: Daily Repeat
- Assay type: toxicity, organism-based, Sprague-Dawley
- Design: regimen Daily Repeat, gender Male, age 6-8 weeks
- Stated conditions: in vivo, po, 0 mg/kg, 120 h, tissue Plasma, route oral GAVAGE, dose level Control, time 5 day, vehicle .5 % CMC
Value type: LACTATE DEHYDROGENASE (u/L)

{"Compound": "O=C1CN=C(c2ccccc2Cl)c2cc([N+](=O)[O-])ccc2N1", "Test value": 500.5}
{"Compound": "O=C1Nc2ccc(Cl)cc2C(c2ccccc2Cl)=NC1O (stereo not given)", "Test value": 517.33}
{"Compound": "C[C@H]1O[C@@H](n2cc(F)c(=O)[nH]c2=O)[C@H](O)[C@@H]1O", "Test value": 500.5}
{"Compound": "Cn1c(=O)c2c(ncn2CC(O)CO)n(C)c1=O (stereo not given)", "Test value": 146.5}
{"Compound": "O=C1C(CC[S+]([O-])c2ccccc2)C(=O)N(c2ccccc2)N1c1ccccc1 (stereo not given)", "Test value": 517.33}
{"Compound": "CCN(CC)CCOc1ccc(/C(=C(/Cl)c2ccccc2)c2ccccc2)cc1", "Test value": 174}
{"Compound": "COc1cc2nc(N3CCN(C(=O)c4ccco4)CC3)nc(N)c2cc1OC", "Test value": 517.33}
{"Compound": "CN(C)[C@@H]1C(O)=C(C(N)=O)C(=O)[C@@]2(O)C(O)=C3C(=O)c4c(O)ccc(Cl)c4[C@@](C)(O)[C@H]3C[C@@H]12", "Test value": 146.5}
{"Compound": "COC1=C(OC)C(=O)C(CCCCCCCCCCO)=C(C)C1=O", "Test value": 500.5}
{"Compound": "CN/C(=N/CCSCc1nc[nH]c1C)NC#N", "Test value": 500.5}

----------
- Species: Rattus norvegicus
- Experiment summary: DrugMatrix - Regimen: Daily Repeat
- Type: toxicity, organism-based, Sprague-Dawley
- Parameters: regimen Daily Repeat, gender Male, age 6-8 weeks
- Stated conditions: in vivo, po, 20 mg/kg, 72 h, tissue Blood, route oral GAVAGE, dose level Low, time 3 day, vehicle .5 % CMC
Value type: ABSOLUTE BASOPHIL (cells/µL)

{"Compound": "CC(C(=O)O)c1ccc2oc(-c3ccc(Cl)cc3)nc2c1 (stereo unspecified) [BENOXAPROFEN]", "Test value": 20}

FYI, the data here is from ChEMBL document CHEMBL3885881.
